Target: A2 receptor of the coronary artery (Cavia porcellus, UniProt P46616)
Construct: perfused hearts from female Sprague-Dawley guinea pigs in an isolated Langendorff heart preparation; from tissue; host or cells: isolated perfused guinea pig heart (Langendorff), coronary vasculature
Sequence (P46616 whole entry, the tested form may be a part): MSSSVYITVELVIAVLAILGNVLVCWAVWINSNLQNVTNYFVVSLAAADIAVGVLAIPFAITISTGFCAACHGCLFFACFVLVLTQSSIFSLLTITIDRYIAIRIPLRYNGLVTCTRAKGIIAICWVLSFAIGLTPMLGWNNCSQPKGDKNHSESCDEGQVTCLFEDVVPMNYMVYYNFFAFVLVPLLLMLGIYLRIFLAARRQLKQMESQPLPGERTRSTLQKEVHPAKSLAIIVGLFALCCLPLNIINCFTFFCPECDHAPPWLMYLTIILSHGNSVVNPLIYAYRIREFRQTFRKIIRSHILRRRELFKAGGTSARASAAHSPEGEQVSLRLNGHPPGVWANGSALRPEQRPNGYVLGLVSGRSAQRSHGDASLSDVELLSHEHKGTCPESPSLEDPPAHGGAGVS
Experiment: Coronary blood flow increase (A2 effect), isolated perfused Langendorff heart
Parameters: species or system guinea pig (female Sprague-Dawley guinea pigs)
Details: ratio of SQ prolongation ED50 (A1) to coronary flow EC50 (A2)
Threshold 900: Selectivity (A1/A2) strictly smaller gives true (1), otherwise false (0).

1. Nc1nc(OC2CCCC2)nc2c1ncn2[C@@H]1O[C@H](CO)[C@@H](O)[C@H]1O	true (1)
2. CCNC(=O)[C@H]1O[C@@H](n2cnc3c(N)nc(OCCc4ccccc4)nc32)[C@H](O)[C@@H]1O	false (0)
3. COc1cccc(CCOc2nc(N)c3ncn([C@@H]4O[C@H](CO)[C@@H](O)[C@H]4O)c3n2)c1 [Example 9, 2-[2-(3-methoxyphenyl)ethoxy]adenosine]	false (0)

Ask | Answer whether the molecule `CC[C@@H](COc1nc(N)c2ncn([C@@H]3O[C@H](CO)[C@@H](O)[C@H]3O)c2n1)c1ccccc1` has Selectivity (A1/A2) strictly less than 900
Reply | true (1)

Ask | Dear reviewer, please state whether `Nc1nc(OCCCc2ccccc2)nc2c1ncn2[C@@H]1O[C@H](CO)[C@@H](O)[C@H]1O` has Selectivity (A1/A2) strictly beneath 900.
Reply | true (1)

From: patent USRE36494E
